# tested-system: T1, FV-810^QQ (human, UniProt P12259 29-838; P12259 1520-2224)
# T1 construct: range 1-810;range 1492-2196; Both thrombin sites (Arg709 and Arg1545) changed to Gln; the assay field says where thrombin pretreatment was used
# T1 sequence (P12259 other isoform, or with tags, fused parts or gaps): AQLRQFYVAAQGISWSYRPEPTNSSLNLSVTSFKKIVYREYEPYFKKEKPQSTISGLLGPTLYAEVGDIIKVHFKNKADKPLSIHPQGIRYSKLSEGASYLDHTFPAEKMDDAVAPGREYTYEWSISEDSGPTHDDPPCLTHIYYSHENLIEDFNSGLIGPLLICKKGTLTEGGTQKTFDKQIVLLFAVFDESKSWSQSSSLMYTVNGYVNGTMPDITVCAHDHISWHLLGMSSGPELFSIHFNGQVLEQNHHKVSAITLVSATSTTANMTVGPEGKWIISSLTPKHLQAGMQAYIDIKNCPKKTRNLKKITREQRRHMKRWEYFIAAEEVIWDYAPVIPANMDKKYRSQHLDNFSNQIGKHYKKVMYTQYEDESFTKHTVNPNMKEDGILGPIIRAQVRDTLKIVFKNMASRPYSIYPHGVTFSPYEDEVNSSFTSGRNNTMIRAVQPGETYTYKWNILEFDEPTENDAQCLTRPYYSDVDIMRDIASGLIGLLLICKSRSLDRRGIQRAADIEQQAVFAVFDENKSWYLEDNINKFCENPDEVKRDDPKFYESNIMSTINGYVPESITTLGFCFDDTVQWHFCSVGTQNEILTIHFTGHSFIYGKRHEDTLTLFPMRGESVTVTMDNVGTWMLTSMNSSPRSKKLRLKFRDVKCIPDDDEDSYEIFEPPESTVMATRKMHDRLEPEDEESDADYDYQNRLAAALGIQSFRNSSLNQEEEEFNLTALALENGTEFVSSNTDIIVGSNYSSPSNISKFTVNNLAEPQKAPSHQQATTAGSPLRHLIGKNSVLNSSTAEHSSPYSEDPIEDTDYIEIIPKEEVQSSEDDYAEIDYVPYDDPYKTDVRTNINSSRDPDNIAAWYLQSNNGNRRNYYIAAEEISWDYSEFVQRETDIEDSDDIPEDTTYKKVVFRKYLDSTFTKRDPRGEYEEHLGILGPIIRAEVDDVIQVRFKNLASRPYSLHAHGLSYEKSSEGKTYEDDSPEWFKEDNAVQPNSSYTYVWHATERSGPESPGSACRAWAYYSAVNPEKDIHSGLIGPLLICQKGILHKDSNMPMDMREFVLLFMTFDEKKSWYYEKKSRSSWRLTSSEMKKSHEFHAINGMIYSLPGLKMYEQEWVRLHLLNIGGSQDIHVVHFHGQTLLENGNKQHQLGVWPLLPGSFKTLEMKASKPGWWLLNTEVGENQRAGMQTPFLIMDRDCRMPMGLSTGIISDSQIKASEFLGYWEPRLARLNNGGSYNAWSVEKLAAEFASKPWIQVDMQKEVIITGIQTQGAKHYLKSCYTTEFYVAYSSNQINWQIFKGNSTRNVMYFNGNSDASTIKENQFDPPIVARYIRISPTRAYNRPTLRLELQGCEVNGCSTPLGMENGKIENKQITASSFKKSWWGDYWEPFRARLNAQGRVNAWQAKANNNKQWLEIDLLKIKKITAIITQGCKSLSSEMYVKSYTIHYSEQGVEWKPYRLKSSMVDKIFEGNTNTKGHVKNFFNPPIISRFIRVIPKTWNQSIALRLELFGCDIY
# assay-info: fluorescence anisotropy; thrombin-pretreated protein titrated into 30 nM OG488-BR, 50 uM PCPS; n=1 assumed
Ends that are not written are not given here.
measured-quantity: Kd (nM)
Give the value, in units of nM, as a plain number.

Data request: // query Kd value for entry Oregon Green 488 maleimide-modified BR (OG488-BR) (also called fluorescently labeled FVBR) peptide: C(Oregon Green 488 maleimide)SRAWGESTPLANKPGKQSGHPKFPRVRHKSLQVRQDGGKSRLKKSQFLIKTRKKKKEK
Data returned: 1.3
